The reader will find reported Microsomal (Rat): percent of compound remaining values listed item by item below.
Assay: Microsomal stability (Rat)
Assay type: in vitro ADME
Conditions: after 60 minutes
Please respond with the number in % and leave the unit unwritten.

In one line, give reported Microsomal (Rat): percent of compound remaining of the entry CC(C)C(=O)N1CCCC12CC=CCNC2=O (single isomer, unassigned) [GH-2] .
104

====

The reader will find reported Plasma (Rat): percent of compound remaining values listed item by item below.
Test: Plasma stability (Rat)
Format: in vitro ADME
Settings: after 60 minutes
Please respond with the number in % and leave the unit unwritten.

INSERT INTO measurements (compound, units_symbol, val) VALUES
  ('O=C1NCC=CCC12CC(F)(F)CN2 (single isomer, unassigned)', '%', 97);

In one line, give reported Plasma (Rat): percent of compound remaining of the entry O=C1N(Cc2ccccc2)CC=CCC12CCCN2 (single isomer, unassigned) [GS-2] .
99

In one line, give reported Plasma (Rat): percent of compound remaining of the entry O=C1NCC=CCC12CCCN2Cc1ccc(F)cc1 (single isomer, unassigned) [GJ-2] .
99
